- study-system: Melanocortin receptor 3 (Homo sapiens)
- Sequence (P41968 whole entry): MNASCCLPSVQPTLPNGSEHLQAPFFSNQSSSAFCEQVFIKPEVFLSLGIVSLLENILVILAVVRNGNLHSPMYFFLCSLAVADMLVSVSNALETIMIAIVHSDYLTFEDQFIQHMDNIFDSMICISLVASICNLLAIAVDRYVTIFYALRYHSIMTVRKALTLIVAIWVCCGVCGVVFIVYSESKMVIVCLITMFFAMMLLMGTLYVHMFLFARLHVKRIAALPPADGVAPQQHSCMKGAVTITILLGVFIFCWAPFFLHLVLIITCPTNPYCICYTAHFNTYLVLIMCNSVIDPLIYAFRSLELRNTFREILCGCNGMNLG
- protocol: Agonistic activity against human Melanocortin 3 receptor
Recorded EC50 for the following compounds
Give your result in µM as a bare value.

N=C(N)NCCC[C@H](NC(=O)C(Cc1ccccc1)NC(=O)[C@H](Cc1ccc(Cl)cc1)NC(=O)C1CC1)C(=O)N[C@@H](Cc1c[nH]c2ccccc12)C(N)=O (stereo in doubt) : 0.473
N=C(N)NCCC[C@H](NC(=O)C(Cc1ccccc1)NC(=O)[C@H](Cc1ccc(Cl)cc1)NC(=O)CC(F)(F)F)C(=O)N[C@@H](Cc1c[nH]c2ccccc12)C(N)=O (stereo in doubt) : 0.886

Problem: Look up and report measured EC50 for this entry: CS(=O)(=O)N[C@@H](Cc1ccc(Cl)cc1)C(=O)NC(Cc1ccccc1)C(=O)N[C@@H](CCCN=C(N)N)C(=O)N[C@@H](Cc1c[nH]c2ccccc12)C(N)=O (stereo in doubt)
Result: 6.7
